assay: Inhibition of HCV 1b NS5B RNA dependent RNA polymerase by scintillation proximity assay; design: species or system Hepacivirus hominis
RECORDED_ENDPOINT: IC50
Express your answer as a number followed by its unit.

The recorded IC50 for entry CN1CCC(NC(=O)c2ccc3c(C4CCCCC4)c(-c4ccccn4)n(C)c3c2)(C(=O)Nc2ccc3sc(C(=O)O)cc3c2)CC1 equals 17 nM

Measured IC50 of Cn1c(-c2ccccn2)c(C2CCCCC2)c2ccc(C(=O)NC(C)(C)C(=O)Nc3ccc4sc(C(=O)O)cc4c3)cc21 : 23 nM

Notebook: Cn1c(-c2ccccn2)c(C2CCCCC2)c2ccc(C(=O)NC3(C(=O)Nc4ccc(C(=O)O)cc4)CCC3)cc21 , IC50 read as 93 nM

Lookup result for CN1CC[C@](NC(=O)c2ccc3c(C4CCCCC4)c(-c4ccccn4)n(C)c3c2)(C(=O)Nc2ccc(/C=C/C(=O)O)cc2)C1 ; measured IC50: 66 nM
